measured.target: UniProtKB Q96RI0
Sequence (Q96RI0 18-385): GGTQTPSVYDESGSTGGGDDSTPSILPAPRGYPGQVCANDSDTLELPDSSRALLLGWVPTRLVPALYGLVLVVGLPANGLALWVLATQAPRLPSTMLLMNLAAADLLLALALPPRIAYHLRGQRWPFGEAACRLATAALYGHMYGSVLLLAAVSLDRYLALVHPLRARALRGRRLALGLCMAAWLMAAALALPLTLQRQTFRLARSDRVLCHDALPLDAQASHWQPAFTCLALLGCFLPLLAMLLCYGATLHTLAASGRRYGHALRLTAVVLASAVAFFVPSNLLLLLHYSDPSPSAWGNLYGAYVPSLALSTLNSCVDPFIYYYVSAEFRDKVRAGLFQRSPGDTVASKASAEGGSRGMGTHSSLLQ
run.description: PAR4 FLIPR assay: antagonism of agonist-peptide-induced calcium mobilization in PAR4-expressing HEK293 cells
condition: H-Ala-Phe(4-F)-[…]NH2-induced intracellular calcium mobilization, 11-point curves
reported.metric: IC50

compound: Cc1cc(-c2nc3cccc(OCCOc4ccccc4)c3s2)c2ncc(OC(F)F)nc2c1 [Example 17]
reported.metric: IC50
result: 13 nM
--
compound: COc1cnc2c(-c3nc4cc(F)c(OC[C@@H](C)OC(=O)Nc5ccnc(OCCC(C)(C)O)c5)cc4s3)cc(C)cc2n1 [Example 567]
reported.metric: IC50
result: 5.9 nM
--
compound: COCc1cnc2c(-c3nc4c(C)c(F)c(OC)nc4s3)cc(C)cc2n1 [Example 763]
reported.metric: IC50
result: 4 nM
--
compound: COc1cnc2c(-c3nc4c(s3)CC(C)(C)CC4)cc(C)cc2n1 [Example 141]
reported.metric: IC50
result: 80 nM
--
compound: COc1cnc2c(-c3nc4cc(F)c(OC[C@@H](C)OC(=O)Nc5ccc(C(=O)NCC(C)(C)O)nc5)cc4s3)cc(C)cc2n1 [Example 448]
reported.metric: IC50
result: 2.1 nM
--
compound: COc1cnc2c(-c3nc4c(C)cc(OCCNS(=O)(=O)c5ccc(F)cc5)cc4s3)cc(C(C)O)cc2n1 (centres unmarked) [Example 239]
reported.metric: IC50
result: 7.9 nM
--
compound: CCOc1cnc2c(-c3nc4cc(F)c(OC[C@@H](C)OC(=O)Nc5cnc(C)nc5)nc4s3)cc(C)cc2n1 [Example 813]
reported.metric: IC50
result: 1 nM
--
compound: C=Cc1cc(-c2nc3c(C)cc(OCCNS(=O)(=O)c4ccc(F)cc4)cc3s2)c2ncc(OC)nc2c1 [Example 229]
reported.metric: IC50
result: 3.9 nM
--
compound: COc1cnc2c(-c3nc4c(C)cc(OCCOC(=O)Nc5ccc(C#N)nc5)cc4s3)cc(C)cc2n1 [Example 117]
reported.metric: IC50
result: 0.5 nM
--
compound: COCc1cnc2c(-c3nc4c(C)cccc4s3)cc(C)cc2n1 [Example 261]
reported.metric: IC50
result: 1.2 nM
--
compound: COc1cnc2c(-c3nc4cc(F)c(O[C@@H](C)[C@@H](C)OC(=O)Nc5ccc(C(=O)N6CCOC[C@@H]6CO)nc5)cc4s3)cc(C)cc2n1 [Example 487]
reported.metric: IC50
result: 1.3 nM
--
compound: COCc1cnc2c(-c3nc4c(Cl)cc(OCCNS(C)(=O)=O)cc4s3)cc(C)cc2n1 [Example 98]
reported.metric: IC50
result: 0.3 nM
--
compound: COCc1cnc2c(-c3nc4c(C)cc(OCCNS(=O)(=O)c5ccc(F)cc5)cc4s3)cc(C#N)cc2n1 [Example 232]
reported.metric: IC50
result: 0.7 nM
--
compound: COCc1cnc2c(-c3nc4c(C)cc(OCCNS(=O)(=O)c5ccc(F)cc5)cc4s3)cc(C(N)=O)cc2n1 [Example 225]
reported.metric: IC50
result: 54 nM
--
compound: COC(=O)c1ncc(NC(=O)O[C@H](C)COc2nc3sc(-c4cc(C)cc5nc(OC)cnc45)nc3cc2F)cn1 [Example 689]
reported.metric: IC50
result: 0.3 nM
--
compound: COc1cnc2c(-c3nc4cc(F)c(OCCOC(=O)Nc5ccc6[nH]c(=O)oc6c5)cc4s3)cc(C)cc2n1 [Example 343]
reported.metric: IC50
result: 0.7 nM
--
compound: COc1cnc2c(-c3nc4c(C)c(F)c(OC)cc4s3)cc(C(C)O)cc2n1 (centres unmarked) [Example 244]
reported.metric: IC50
result: 2 nM
--
compound: COc1cnc2c(-c3nc4cc(F)c(O[C@@H](C)[C@@H](C)OC(=O)Nc5cncc(O)c5)cc4s3)cc(C)cc2n1 [Example 533]
reported.metric: IC50
result: 0.7 nM
--
compound: COc1cnc2c(-c3nc4cc(F)c(O[C@@H](C)[C@@H](C)OC(=O)Nc5ccc(CC(C)(C)O)nc5)cc4s3)cc(Cl)cc2n1 [Example 835]
reported.metric: IC50
result: 0.5 nM
--
compound: COCc1cnc2c(-c3nc4c(C)cc(OC)cc4s3)cc(C(=O)OC)cc2n1 [Example 204]
reported.metric: IC50
result: 3.1 nM
--
compound: Cc1cc(-c2nc3c(C)cc(OCCNS(=O)(=O)c4ccc(F)cc4)cc3s2)c2ncc(OC3CC3)nc2c1 [Example 33]
reported.metric: IC50
result: 120 nM
--
compound: COc1cnc2c(-c3nc4c(Cl)c(F)c(OC)cc4s3)cc(Cl)cc2n1 [Example 215]
reported.metric: IC50
result: 2.9 nM
--
compound: Cc1ccc(-c2cc3ccccc3o2)c2ncc(OC(F)F)nc12 [Example 133]
reported.metric: IC50
result: 570 nM
--
compound: COCc1cnc2c(-c3nc4c(C)c(C)c(OC(C)CO)cc4s3)cc(C)cc2n1 (racemic) [Example 321]
reported.metric: IC50
result: 3.1 nM
--
compound: COc1cnc2c(-c3nc4cc(F)c(OC[C@@H](C)OC(=O)Nc5cnc6[nH]ccc6c5)cc4s3)cc(C)cc2n1 [Example 354]
reported.metric: IC50
result: 1.2 nM
--
compound: CCOc1cnc2c(-c3nc4cc(F)c(O[C@@H](C)[C@@H](C)OC(=O)Nc5cnc(OC[C@H](C)O)nc5)cc4s3)cc(C)cc2n1 [Example 582]
reported.metric: IC50
result: 5.3 nM
--
compound: COc1cnc2c(-c3nc4cc(F)c(OC[C@@H](C)OC(=O)Nc5cnc(CO)nc5)nc4s3)cc(Cl)cc2c1 [Example 794]
reported.metric: IC50
result: 10 nM
--
compound: COc1cnc2c(-c3nc4cc(F)c(OC[C@@H](C)OC(=O)Nc5cnc(N(C)C)nc5)cc4s3)cc(C)cc2n1 [Example 597]
reported.metric: IC50
result: 15 nM
--
compound: COc1cnc2c(-c3nc4c(Cl)c(F)c(OCCOC(=O)Nc5ccc(F)nc5)cc4s3)cc(C)cc2n1 [Example 304]
reported.metric: IC50
result: 2.3 nM
